targetUnderTest: IKZF2 (Homo sapiens (Human), UniProt Q96SW2+Q9UKS7)
Sequence (Q9UKS7 whole entry): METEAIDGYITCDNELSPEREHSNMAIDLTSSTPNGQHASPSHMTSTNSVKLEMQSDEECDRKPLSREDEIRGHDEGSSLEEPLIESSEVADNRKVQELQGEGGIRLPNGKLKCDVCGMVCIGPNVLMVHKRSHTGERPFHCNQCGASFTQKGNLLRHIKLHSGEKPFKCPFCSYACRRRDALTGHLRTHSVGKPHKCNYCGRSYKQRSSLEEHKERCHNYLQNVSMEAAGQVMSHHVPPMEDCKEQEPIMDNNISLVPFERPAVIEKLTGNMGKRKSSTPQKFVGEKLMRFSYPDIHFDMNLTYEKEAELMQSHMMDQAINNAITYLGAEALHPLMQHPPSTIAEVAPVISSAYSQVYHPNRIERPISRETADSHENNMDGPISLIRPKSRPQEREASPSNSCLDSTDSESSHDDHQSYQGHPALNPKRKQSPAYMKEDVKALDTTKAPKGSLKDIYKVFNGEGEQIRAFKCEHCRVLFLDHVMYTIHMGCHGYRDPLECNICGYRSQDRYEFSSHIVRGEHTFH
Sequence (Q96SW2 whole entry): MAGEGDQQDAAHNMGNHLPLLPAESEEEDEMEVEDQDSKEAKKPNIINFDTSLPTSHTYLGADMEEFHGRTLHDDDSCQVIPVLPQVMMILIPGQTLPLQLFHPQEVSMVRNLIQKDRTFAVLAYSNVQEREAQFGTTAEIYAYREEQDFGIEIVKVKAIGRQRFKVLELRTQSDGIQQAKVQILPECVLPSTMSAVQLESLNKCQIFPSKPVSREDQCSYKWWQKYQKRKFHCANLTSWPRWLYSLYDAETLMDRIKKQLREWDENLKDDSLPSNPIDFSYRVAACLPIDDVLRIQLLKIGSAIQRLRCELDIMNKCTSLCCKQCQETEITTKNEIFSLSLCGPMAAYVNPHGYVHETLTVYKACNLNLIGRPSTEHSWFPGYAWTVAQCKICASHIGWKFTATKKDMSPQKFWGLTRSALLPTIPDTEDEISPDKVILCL
Sequence (Q16531 2-1140 partner): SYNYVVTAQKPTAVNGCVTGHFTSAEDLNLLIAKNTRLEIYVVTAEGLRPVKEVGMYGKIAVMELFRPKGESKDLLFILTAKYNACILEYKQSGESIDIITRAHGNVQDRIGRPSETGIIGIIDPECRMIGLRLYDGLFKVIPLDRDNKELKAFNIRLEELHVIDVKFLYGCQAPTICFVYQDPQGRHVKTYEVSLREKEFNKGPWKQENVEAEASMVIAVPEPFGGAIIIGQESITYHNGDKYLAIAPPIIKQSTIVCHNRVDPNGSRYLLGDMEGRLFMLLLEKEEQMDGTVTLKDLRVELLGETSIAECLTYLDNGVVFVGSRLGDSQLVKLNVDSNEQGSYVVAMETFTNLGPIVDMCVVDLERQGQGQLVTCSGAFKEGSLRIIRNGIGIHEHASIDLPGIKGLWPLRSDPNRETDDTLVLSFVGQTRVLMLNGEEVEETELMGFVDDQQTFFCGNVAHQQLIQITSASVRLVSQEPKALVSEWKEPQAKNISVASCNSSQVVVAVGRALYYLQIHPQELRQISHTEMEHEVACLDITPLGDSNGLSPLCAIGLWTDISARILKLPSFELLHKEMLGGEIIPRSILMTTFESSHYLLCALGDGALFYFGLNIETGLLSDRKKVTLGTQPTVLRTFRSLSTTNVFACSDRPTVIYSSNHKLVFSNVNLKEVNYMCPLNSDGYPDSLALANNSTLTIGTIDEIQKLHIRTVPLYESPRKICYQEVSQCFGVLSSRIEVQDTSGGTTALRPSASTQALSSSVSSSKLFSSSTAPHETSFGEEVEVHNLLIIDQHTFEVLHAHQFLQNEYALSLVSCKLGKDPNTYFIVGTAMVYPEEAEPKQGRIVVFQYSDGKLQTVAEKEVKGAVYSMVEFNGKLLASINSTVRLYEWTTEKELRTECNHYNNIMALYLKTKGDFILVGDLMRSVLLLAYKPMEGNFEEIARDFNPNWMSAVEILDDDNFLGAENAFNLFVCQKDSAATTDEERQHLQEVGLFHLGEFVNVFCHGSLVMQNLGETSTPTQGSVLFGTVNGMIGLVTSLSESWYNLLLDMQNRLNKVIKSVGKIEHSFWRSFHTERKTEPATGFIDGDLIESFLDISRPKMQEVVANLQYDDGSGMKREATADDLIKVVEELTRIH
experimentNotes: In vitro IKZF2 Western Blot Assay in Jurkat cells
Format: cell-based
cond: 24 hrs, 0.1 μM, read-out: IKZF2 degradation (%) @ μM 0.1
Consider the following compounds; for each one, report its inhibition at 0.1 µM.

CC(C)(NCc1cc(-c2ccc3c(c2)CN(C2CCC(=O)NC2=O)C3=O)c2nccn2c1)c1ccccc1 (stereo not drawn) ... 30 to 50%
O=C1CCC(N2Cc3cc(-c4cc(CNCCc5ccccc5Cl)cn5ccnc45)ccc3C2=O)C(=O)N1 (stereo not drawn) ... 30 to 50%
O=C1CCC(N2Cc3cc(-c4cc(CNCCc5ccccc5C(F)(F)F)cn5ccnc45)ccc3C2=O)C(=O)N1 (stereo not drawn) ... < 30%
O=C1CCC(N2Cc3cc(-c4cc(CNCCc5c(Cl)cccc5Cl)cn5ccnc45)ccc3C2=O)C(=O)N1 (stereo not drawn) ... < 30%
O=C1CCC(N2Cc3cc(-c4cc(CN5CCC(c6ccccc6)CC5)cn5ccnc45)ccc3C2=O)C(=O)N1 (stereo not drawn) ... < 30%

Quick batch: inhibition at 0.1 µM for everything below.
1. O=C1CCC(N2Cc3cc(-c4cc(CN5CC(c6ccccc6)C5)cn5ccnc45)ccc3C2=O)C(=O)N1 (stereo not drawn)
2. O=C1CCC(N2Cc3cc(-c4cc(CNCc5ccccc5Cl)cn5ccnc45)ccc3C2=O)C(=O)N1 (stereo not drawn)
3. O=C1CCC(N2Cc3cc(-c4cc(CNCCc5ccccc5Cl)cc5cncn45)ccc3C2=O)C(=O)N1 (stereo not drawn)
4. O=C1CCC(N2Cc3cc(-c4cc(CN5CCC(C(F)(F)F)CC5)cn5ccnc45)ccc3C2=O)C(=O)N1 (stereo not drawn)
5. Cc1ccccc1CCNCc1cc(-c2ccc3c(c2)CN(C2CCC(=O)NC2=O)C3=O)c2nccn2c1 (stereo not drawn)
6. O=C1CCC(N2Cc3cc(-c4cc(CN5CCCCC5)cn5ccnc45)ccc3C2=O)C(=O)N1 (stereo not drawn)

1: < 30%; 2: < 30%; 3: > 50%; 4: < 30%; 5: < 30%; 6: > 50%

Give inhibition at 0.1 µM for each listed item.
1. O=C1CCC(N2Cc3cc(-c4cc(CN5CCCC5c5ccccc5)cc5cncn45)ccc3C2=O)C(=O)N1 (stereo not drawn)
2. O=C1CCC(N2Cc3cc(-c4cc(CN5CCC(F)(F)CC5)cn5ccnc45)ccc3C2=O)C(=O)N1 (stereo not drawn)
3. CC(NCc1cc(-c2ccc3c(c2)CN(C2CCC(=O)NC2=O)C3=O)c2nccn2c1)c1ccccc1 (stereo not drawn)
4. O=C1CCC(N2Cc3cc(-c4cc(CNCCc5ccc(Cl)cc5Cl)cn5ccnc45)ccc3C2=O)C(=O)N1 (stereo not drawn)

1. 30 to 50%
2. < 30%
3. < 30%
4. < 30%
